molecular target: monoclonal antibody 1A5.5; experiment: Indirect competitive enzyme immunoassay, monoclonal antibody 1A5.5; assay type: binding, mouse; conditions: MAb 1A5.5, coating antigen H
OUTCOME MEASURE: I50 (half-maximal inhibition)

Q: Entry Cc1cnc(C2=NC(C)(C(C)C)C(=O)N2)c(C(=O)O)c1 (stereo not shown) has what I50 (half-maximal inhibition)?
Result: 100 ppb (ng/mL)

Q: Entry CC(C)C1(C)N=C(c2ncccc2C(=O)O)NC1=O (stereo not shown) has what I50 (half-maximal inhibition)?
Result: 500 ppb (ng/mL)

Q: Entry CCc1cnc(C2=NC(C)(C(C)C)C(=O)N2)c(C(=O)O)c1 (stereo not shown) has what I50 (half-maximal inhibition)?
Result: 60 ppb (ng/mL)

Q: Entry CC(C)C1(C)N=C(c2nc3ccccc3cc2C(=O)O)NC1=O (stereo not shown) has what I50 (half-maximal inhibition)?
Result: >1,000 ppb (ng/mL)
